Study Target: Tyrosine-protein kinase JAK3 (Homo sapiens) (UniProt P52333)
Sequence (P52333 whole entry): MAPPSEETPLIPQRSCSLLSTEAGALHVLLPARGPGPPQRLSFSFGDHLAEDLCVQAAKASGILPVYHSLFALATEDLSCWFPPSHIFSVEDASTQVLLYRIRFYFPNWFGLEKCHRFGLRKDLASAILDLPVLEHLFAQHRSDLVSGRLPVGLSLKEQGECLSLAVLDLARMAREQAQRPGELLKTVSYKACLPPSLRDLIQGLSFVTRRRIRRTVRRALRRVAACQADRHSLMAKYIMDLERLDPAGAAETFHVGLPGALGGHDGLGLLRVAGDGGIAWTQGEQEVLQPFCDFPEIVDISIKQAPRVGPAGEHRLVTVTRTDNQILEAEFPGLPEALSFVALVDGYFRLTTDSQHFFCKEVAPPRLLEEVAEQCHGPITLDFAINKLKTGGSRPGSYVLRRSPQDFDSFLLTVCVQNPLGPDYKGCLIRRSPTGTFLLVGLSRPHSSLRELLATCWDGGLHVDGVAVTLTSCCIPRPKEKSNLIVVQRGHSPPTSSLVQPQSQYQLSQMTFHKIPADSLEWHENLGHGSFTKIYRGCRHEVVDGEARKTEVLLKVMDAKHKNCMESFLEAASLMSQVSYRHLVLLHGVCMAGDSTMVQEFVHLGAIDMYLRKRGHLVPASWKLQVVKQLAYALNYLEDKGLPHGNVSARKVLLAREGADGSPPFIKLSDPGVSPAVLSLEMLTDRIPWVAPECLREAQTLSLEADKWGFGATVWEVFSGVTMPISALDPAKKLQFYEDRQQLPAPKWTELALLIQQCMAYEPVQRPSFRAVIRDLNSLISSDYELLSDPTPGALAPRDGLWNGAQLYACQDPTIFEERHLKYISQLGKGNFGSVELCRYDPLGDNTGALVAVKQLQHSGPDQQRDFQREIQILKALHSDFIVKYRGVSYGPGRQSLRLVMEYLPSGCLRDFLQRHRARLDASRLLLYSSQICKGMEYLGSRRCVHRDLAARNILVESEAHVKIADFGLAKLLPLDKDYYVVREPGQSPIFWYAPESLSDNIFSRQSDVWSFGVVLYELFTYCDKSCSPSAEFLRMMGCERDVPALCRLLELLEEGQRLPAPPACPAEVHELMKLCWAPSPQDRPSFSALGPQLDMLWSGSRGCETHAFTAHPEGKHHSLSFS
Recorded Conditions: at 1 µM
Description: GSK_PKIS: JAK3 mean inhibition at 1 uM [Nanosyn]
Metric Name: inhibition
Give your result as the value with the unit written after it.

Example entries begin here.
INSERT INTO assay_data (mol, study_target, value_reported) VALUES
  ('Cc1ccc(NC(=O)c2ccoc2)cc1-c1ccc(C(=O)NCC2CC2)cc1', 'Tyrosine-protein kinase JAK3 (Homo sapiens) (UniProt P52333)', '-0.47%'),
  ('O=C(NCC1CC1)c1ccc(-c2cccc(C(=O)NC3CC3)c2)cc1', 'Tyrosine-protein kinase JAK3 (Homo sapiens) (UniProt P52333)', '0.07%'),
  ('NS(=O)(=O)c1ccc(N/N=C2\C(=O)Nc3ccc(C(=O)NCCCn4ccnc4)cc32)cc1', 'Tyrosine-protein kinase JAK3 (Homo sapiens) (UniProt P52333)', '18.8%'),
  ('c1ccc(-c2n[nH]cc2-c2ccnc(-c3ccc(OCCN4CCOCC4)cc3)c2)nc1', 'Tyrosine-protein kinase JAK3 (Homo sapiens) (UniProt P52333)', '5.88%');

Your task in this section: give inhibition for each listed record.
1. Cc1ccc(C(=O)NC(C)C)cc1-c1ccc(C(=O)NCC2CC2)cc1
2. O=C(Nc1n[nH]c2cc(-c3cc(F)ccc3F)ccc12)C1CC1
3. Fc1ccc(-c2ncn(C3CCNCC3)c2-c2ccnc(Oc3ccc4c(c3)OCO4)n2)cc1

1. 1.51%
2. -0.99%
3. -2.01%

* * *

Test system: Epidermal growth factor receptor (Homo sapiens), P00533 [L858R,T790M]
Sequence (P00533 whole entry T790M/L858R, looked up): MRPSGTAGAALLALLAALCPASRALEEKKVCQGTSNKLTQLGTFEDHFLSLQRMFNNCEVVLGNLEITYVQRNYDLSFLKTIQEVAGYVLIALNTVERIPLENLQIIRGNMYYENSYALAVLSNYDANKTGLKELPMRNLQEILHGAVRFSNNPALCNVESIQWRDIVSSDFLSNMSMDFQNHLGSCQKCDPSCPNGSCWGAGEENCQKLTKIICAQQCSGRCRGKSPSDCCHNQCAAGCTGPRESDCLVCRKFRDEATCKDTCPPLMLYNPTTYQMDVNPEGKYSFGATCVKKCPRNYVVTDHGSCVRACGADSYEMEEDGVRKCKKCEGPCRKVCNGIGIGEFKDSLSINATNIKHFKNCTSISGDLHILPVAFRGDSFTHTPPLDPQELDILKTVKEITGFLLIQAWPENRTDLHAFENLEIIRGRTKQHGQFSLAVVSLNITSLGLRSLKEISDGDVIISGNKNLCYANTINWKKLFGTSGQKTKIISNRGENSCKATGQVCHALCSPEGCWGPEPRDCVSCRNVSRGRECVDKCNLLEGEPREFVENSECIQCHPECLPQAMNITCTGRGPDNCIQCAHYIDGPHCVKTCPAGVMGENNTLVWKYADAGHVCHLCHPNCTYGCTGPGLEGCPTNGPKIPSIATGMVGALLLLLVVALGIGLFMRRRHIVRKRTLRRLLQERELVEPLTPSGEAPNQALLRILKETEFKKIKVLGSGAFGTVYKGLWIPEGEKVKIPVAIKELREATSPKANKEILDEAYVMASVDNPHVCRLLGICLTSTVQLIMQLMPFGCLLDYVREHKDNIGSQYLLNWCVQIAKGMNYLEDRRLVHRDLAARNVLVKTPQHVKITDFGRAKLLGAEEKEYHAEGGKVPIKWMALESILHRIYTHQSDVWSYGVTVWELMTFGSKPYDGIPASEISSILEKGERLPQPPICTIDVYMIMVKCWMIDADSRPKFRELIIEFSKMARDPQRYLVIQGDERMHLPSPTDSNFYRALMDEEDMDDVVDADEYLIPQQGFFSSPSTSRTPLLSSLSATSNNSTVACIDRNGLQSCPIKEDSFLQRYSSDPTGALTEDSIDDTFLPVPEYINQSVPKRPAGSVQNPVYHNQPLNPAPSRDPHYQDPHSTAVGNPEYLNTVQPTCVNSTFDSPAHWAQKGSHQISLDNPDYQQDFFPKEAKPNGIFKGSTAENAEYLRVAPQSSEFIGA
Recorded Conditions: at 1 µM
Metric Name: inhibition
State the value with its unit after it.

Check out these entries, answers already filled in.
INSERT INTO measurements (molecule, study_target, value_reported) VALUES
  ('Fc1ccc(-c2ncn(CCCN3CCOCC3)c2-c2ccncc2)cc1', 'Epidermal growth factor receptor (Homo sapiens), P00533 [L858R,T790M]', '1.72%'),
  ('C[C@@H](Oc1cc(-n2cnc3ccc(OC4CCN(C)CC4)cc32)sc1C(N)=O)c1ccccc1Cl', 'Epidermal growth factor receptor (Homo sapiens), P00533 [L858R,T790M]', '6.15%'),
  ('COc1cc(Nc2ncc3c(C)nc(-c4cccc(Oc5ccccc5)c4)n3n2)cc(OC)c1OC', 'Epidermal growth factor receptor (Homo sapiens), P00533 [L858R,T790M]', '-0.96%'),
  ('O=C(Nc1ccc(Oc2ccc3[nH]c(NC(=O)c4ccccc4)nc3c2)cc1)Nc1cc(C(F)(F)F)ccc1F', 'Epidermal growth factor receptor (Homo sapiens), P00533 [L858R,T790M]', '2.34%'),
  ('COc1ccc(-c2ccc3c(NC(=O)C4CC4)n[nH]c3n2)cc1', 'Epidermal growth factor receptor (Homo sapiens), P00533 [L858R,T790M]', '5.32%'),
  ('Nc1nccc(-c2c(-c3ccc(F)cc3)ncn2C2CCC(O)CC2)n1 (configuration not stated)', 'Epidermal growth factor receptor (Homo sapiens), P00533 [L858R,T790M]', '15.4%');

Moving on to another molecule below.
Tell me reported inhibition for `COc1cc(Nc2ncc3c(C)nc(-c4cccc(C(F)(F)F)c4)n3n2)cc(OC)c1OC` , tested with Epidermal growth factor receptor (Homo sapiens), P00533 [L858R,T790M].
5.23%

* * *

Study Target: Interleukin-1 receptor-associated kinase 4 (Homo sapiens);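 further: reported figure is the mean inhibition of IRAK4 activity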
Sequence (whole entry): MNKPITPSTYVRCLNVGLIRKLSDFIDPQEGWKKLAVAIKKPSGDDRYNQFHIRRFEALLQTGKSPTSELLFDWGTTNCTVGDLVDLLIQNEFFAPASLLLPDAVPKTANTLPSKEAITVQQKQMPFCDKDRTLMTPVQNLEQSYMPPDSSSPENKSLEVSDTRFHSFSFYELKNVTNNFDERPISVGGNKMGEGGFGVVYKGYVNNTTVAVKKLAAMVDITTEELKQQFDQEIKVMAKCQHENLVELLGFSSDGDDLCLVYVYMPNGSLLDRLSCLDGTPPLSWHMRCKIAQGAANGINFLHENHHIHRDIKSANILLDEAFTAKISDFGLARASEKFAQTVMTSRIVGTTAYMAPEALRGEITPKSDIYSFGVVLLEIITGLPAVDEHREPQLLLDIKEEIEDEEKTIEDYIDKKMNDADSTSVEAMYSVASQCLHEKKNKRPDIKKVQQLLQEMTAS
Recorded Conditions: at 0.1 µM
Metric Name: inhibition (%)
Numbers only, in %.

Please review the following examples before continuing.
INSERT INTO assay_data (compound, study_target, metric_name, unit_label, value_reported) VALUES
  ('O=C1NC(=O)C(c2cccc(Cl)c2)=C1Nc1ccc(Cl)c(C(=O)O)c1', 'Interleukin-1 receptor-associated kinase 4 (Homo sapiens)', 'inhibition', '%', 3.69),
  ('COc1ccc(C2=C(N3CCc4ccccc43)C(=O)NC2=O)cc1', 'Interleukin-1 receptor-associated kinase 4 (Homo sapiens)', 'inhibition', '%', 5.89),
  ('O=C(NCC1CC1)c1ccc(-c2cccc(C(=O)NC3CC3)c2)cc1', 'Interleukin-1 receptor-associated kinase 4 (Homo sapiens)', 'inhibition', '%', -3.46),
  ('O=C1Nc2ccccc2/C1=C/Nc1ccc(-n2cncn2)cc1', 'Interleukin-1 receptor-associated kinase 4 (Homo sapiens)', 'inhibition', '%', 2.2),
  ('CCc1cccc(CC)c1/C=C/c1cncc(C(=O)NC)c1', 'Interleukin-1 receptor-associated kinase 4 (Homo sapiens)', 'inhibition', '%', -3.49),
  ('NS(=O)(=O)c1ccc(N/N=C2\C(=O)Nc3ccc(C(=O)NCCCn4ccnc4)cc32)cc1', 'Interleukin-1 receptor-associated kinase 4 (Homo sapiens)', 'inhibition', '%', 3.89),
  ('CCS(=O)(=O)c1ccc(OC)c(Nc2ncc(-c3cccc(-c4ccccc4F)c3)o2)c1', 'Interleukin-1 receptor-associated kinase 4 (Homo sapiens)', 'inhibition', '%', 1.45),
  ('CN(C)CCCNc1nccc(-c2c(-c3ccc(F)cc3)nn3cc(C(F)(F)F)ccc23)n1', 'Interleukin-1 receptor-associated kinase 4 (Homo sapiens)', 'inhibition', '%', -2.77),
  ('COc1ccc2cc(-c3c(-c4ccncc4)nc(-c4ccc([S+](C)[O-])cc4C)n3C)ccc2c1 (configuration not stated)', 'Interleukin-1 receptor-associated kinase 4 (Homo sapiens)', 'inhibition', '%', -4.88),
  ('Nc1nccc(-c2c(-c3ccc(F)cc3)ncn2C2CCC(O)CC2)n1 (configuration not stated)', 'Interleukin-1 receptor-associated kinase 4 (Homo sapiens)', 'inhibition', '%', -0.79);

Record inhibition per entry; entries follow.
1. O=C(Nc1n[nH]c2nc(-c3ccc(O)cc3)c(Br)cc12)C1CC1
2. COc1ccc2cc(-c3c(-c4ccncc4)nc(-c4ccc(S(C)(=O)=O)cc4C)n3C)ccc2c1

3.81
3.69

Batch of 5 compounds: report inhibition for each.
1. NC(=O)Cc1ccccc1Oc1nccc(-c2c(-c3ccc(F)cc3)ncn2C2CCNCC2)n1
2. O=C(Nc1n[nH]c2cc(-c3ccccc3)ccc12)C1CC1
3. Fc1ccc(-c2ncn(C3CCNCC3)c2-c2ccnc(Oc3ccc4c(c3)OCO4)n2)cc1
4. c1ccc(Oc2ccc(Nc3ncc(-c4ccccc4)o3)cc2)cc1
5. O=C(Nc1ccc(Oc2ccc3[nH]c(NC(=O)c4ccccc4)nc3c2)cc1)Nc1cc(C(F)(F)F)ccc1F

1. 3.72
2. 2.36
3. 2.54
4. 1.75
5. -1.64
